Below, each entry is listed alongside its reported koff.
- STUDY_SYSTEM: T1, Cynomolgus TNFR2-His (Sino 90102-C08H) (cynomolgus monkey, UniProt A0A2K5VET2 132-366)
- T1 construct: Bought protein; also called cynomolgus monkey TNFR2; recombinant cynomolgus monkey TNFR2 protein; not shown: His tag
- T1 sequence: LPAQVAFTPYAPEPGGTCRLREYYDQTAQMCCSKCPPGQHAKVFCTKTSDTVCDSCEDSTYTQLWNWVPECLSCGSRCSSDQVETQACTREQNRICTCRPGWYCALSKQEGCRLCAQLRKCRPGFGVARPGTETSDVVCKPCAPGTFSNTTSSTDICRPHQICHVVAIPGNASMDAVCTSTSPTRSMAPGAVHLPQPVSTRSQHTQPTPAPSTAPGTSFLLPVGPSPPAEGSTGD
- METHOD_NOTES: SPR (Biacore T200), antibody captured on Protein A chip
READOUT: koff (s⁻¹)

{"columns": ["BINDER", "READOUT", "REPORTED_VALUE"],
 "data": [
  ["219-Hu4 (antibody, V domains shown, also called VH6 + VL5) VH: QVQLVQSGAEVKKPGSSVKVSCKASGYSFTNYWMNWVKQAPGQGLEWIGMIHPSDTETRLNQNFKDKATLTVDKSTSTAYMELSSLRSEDTAVYYCARGEGLGAARSVSMDYWGQGTLVTVSS VL: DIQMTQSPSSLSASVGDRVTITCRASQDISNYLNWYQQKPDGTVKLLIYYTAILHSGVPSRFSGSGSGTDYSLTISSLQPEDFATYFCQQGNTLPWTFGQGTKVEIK", "koff", 0.000389],
  ["219-Hu5 (antibody, V domains shown, also called VH7 + VL5) VH: QVQLVQSGAEVKKPGSSVKVSCKASGYSFTNYWMNWVRQAPGQGLEWMGMIHPSDTETRLNQNFKDRVTITVDKSTSTAYMELSSLRSEDTAVYYCARGEGLGAARSVSMDYWGQGTLVTVSS VL: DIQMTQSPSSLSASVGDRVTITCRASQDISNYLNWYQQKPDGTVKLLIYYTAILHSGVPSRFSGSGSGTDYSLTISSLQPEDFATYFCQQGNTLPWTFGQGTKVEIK", "koff", 0.000381],
  ["001-WT (antibody, V domains shown, Human-murine chimeric wild-type molecule; also called human-murine chimeric antibody WT of #001) VH: EVQLQESGGGLVQPGGSLNLSCAASGFAFSTYDLSWVRQTPEKRLEWVAYINNGGISTYYSDTVKGRFTISRDNAKNTLYLQMSSLKSEDTAMYYCVRGPFYGSANYFDYWGQGTTVTVSS VL: EIVMTQSPASLSLSVGETVTITCRTSESIYSNLPWYQQKQGKSPQLLVYDATKLAEGVPSRFSGSESGTQYSLKINSLQSEDFGTYYCQHFWVTPWTFGGGTKLEIK", "koff", 0.000154]
]}

Reference source: patent US20240109974A1
